target: P-selectin glycoprotein ligand 1 (Homo sapiens); assay: Inhibition of recombinant PSGL-1 at 250 uM by surface plasmon resonance assay
MEASURED ENDPOINT: inhibition (%)

Example entries begin here.
- O=C(O)c1c(O)c(C2(c3ccc(C(F)(F)F)cc3)CC2)nc2c(C(F)(F)F)cccc12: 47
- O=C(O)c1c(O)c(C2(c3ccc(Cl)cc3)CC2)nc2c(C(F)(F)F)cccc12: 55
- CCC(c1ccccc1)c1nc2c(C(F)(F)F)cccc2c(C(=O)O)c1O (stereo not given): 55
- Cc1cc(C)c2nc(C3(c4ccc(Cl)cc4)CC3)c(O)c(C(=O)O)c2c1: 47
- O=C(O)c1c(O)c(C2(c3ccc(F)cc3)CC2)nc2c(C(F)(F)F)cccc12: 56

[I] O=C(O)c1c(O)c(C2Cc3ccccc32)nc2c(C(F)(F)F)cccc12 (stereo not given)
[II] O=C(O)c1c(O)c(C2(c3ccc(Cl)cc3)CCC2)nc2c(C(F)(F)F)cccc12
Short answer wanted: higher inhibition, I or II ? Your choice should be expressed through its label. I

[P] Cc1cc(C(F)(F)F)c2nc(C3(c4ccccc4)CC3)c(O)c(C(=O)O)c2c1
[Q] CC(C)C(c1ccccc1)c1nc2c(C(F)(F)F)cccc2c(C(=O)O)c1O (stereo not given)
Short answer wanted: higher inhibition, P or Q ? Your choice should be expressed through its label. Q
(Q: 58%, P: 40%)

###

test: Physiological stability of the compound in simulated intestinal fluid assessed as compound remaining after 24 hrs in presence of 20% acetonitrile; type: physicochemical; settings: read-out: Stability
MEASURED ENDPOINT: remaining at 24 h (%)
Number only, in %; omit the unit.

Recorded result, O=C(O)c1c(O)c(C2(c3ccc(Cl)cc3)CC2)nc2c(C(F)(F)F)cccc12 , remaining at 24 h: 95

###

test: Oral bioavailability in C57B6 mouse at 10 mg/kg; type: ADME, organism-based; settings: in vivo
MEASURED ENDPOINT: bioavailability (%)

[A] O=C(O)c1c(O)c(C2(c3ccc(Cl)cc3)CC2)nc2c(C(F)(F)F)cccc12
[B] O=C(O)c1c(O)c(Cc2ccc(Cl)cc2)nc2c3c(ccc12)CCCC3
Could you tell me which of A and B has the lower bioavailability reading? Your choice should be expressed through its label. A

###

test: Physiological stability of the compound at pH 9 assessed as compound remaining after 16 hrs in presence of 20% acetonitrile; type: physicochemical; conditions: read-out: Stability
MEASURED ENDPOINT: remaining at 16 h (%)
Number only, in %; omit the unit.

Recorded result, O=C(O)c1c(O)c(C2(c3ccc(Cl)cc3)CC2)nc2c(C(F)(F)F)cccc12 , remaining at 16 h: 98.7

###

biological target: P-selectin glycoprotein ligand 1 (Homo sapiens, UniProt Q14242); test: Inhibition of recombinant PSGL-1 by surface plasmon resonance assay
MEASURED ENDPOINT: IC50 (µM)

• CC(c1ccccc1)c1nc2c3c(ccc2c(C(=O)O)c1O)CCCC3 (stereo not given) = 175

[A] O=C(O)c1c(O)c(C2(c3ccccc3)CC2)nc2c3c(ccc12)CCCC3
[B] O=C(O)c1c(O)c(Cc2ccc(Cl)cc2)nc2c3c(ccc12)CCCC3
[C] CC(=O)N[C@H]1[C@H]([C@H](O)[C@H](O)CO)O[C@@](O[C@H]2[C@@H](O)[C@@H](CO)O[C@@H](O[C@@H]([C@H](O[C@@H]3O[C@@H](C)[C@@H](O)[C@@H](O)[C@@H]3O)[C@H](C=O)NC(C)=O)[C@H](O)CO)[C@@H]2O)(C(=O)O)C[C@@H]1O
[D] O=C(O)c1c(O)c(Cc2ccccc2)nc2c3c(ccc12)CCCC3
Please list the entries, largest IC50 first. Return the labels ranked in the requested order, please. C, D, A, B

###

Catalogue of half-life values
assay: Half life in Beagle dog liver microsomes; assay type: ADME, Canis lupus familiaris, Microsome

- O=C(O)c1c(O)c(Cc2ccc(Cl)cc2)nc2c3c(ccc12)CCCC3: > 1 h

Next:
Recorded result, O=C(O)c1c(O)c(C2(c3ccc(Cl)cc3)CC2)nc2c(C(F)(F)F)cccc12 , half-life: > 1 h

###

assay: Physiological stability of the compound at pH 6.6 assessed as compound remaining after 4 hrs in presence of 20% acetonitrile; format: physicochemical; conditions: read-out: Stability
MEASURED ENDPOINT: remaining at 4 h (%)
Number only, in %; omit the unit.

Recorded result, O=C(O)c1c(O)c(C2(c3ccc(Cl)cc3)CC2)nc2c(C(F)(F)F)cccc12 , remaining at 4 h: 102

###

test: Physiological stability of the compound at pH 7.4 assessed as compound remaining after 4 hrs in presence of 20% acetonitrile; format: physicochemical; conditions: read-out: Stability
MEASURED ENDPOINT: remaining at 4 h (%)
Number only, in %; omit the unit.

Recorded result, O=C(O)c1c(O)c(C2(c3ccc(Cl)cc3)CC2)nc2c(C(F)(F)F)cccc12 , remaining at 4 h: 102

###

experiment: Oral bioavailability in Sprague-Dawley rat at 10 mg/kg; type: ADME, organism-based; details: in vivo
MEASURED ENDPOINT: bioavailability (%)

- CC(c1ccccc1)c1nc2c3c(ccc2c(C(=O)O)c1O)CCCC3 (centres undefined): 66

[1] O=C(O)c1c(O)c(C2(c3ccc(F)cc3)CC2)nc2c(C(F)(F)F)cccc12
[2] CCc1cccc2c(C(=O)O)c(O)c(C3(c4ccc(C(F)(F)F)cc4)CC3)nc12
[3] O=C(O)c1c(O)c(C2(c3ccccc3Cl)CC2)nc2c(C(F)(F)F)cccc12
Ascending by bioavailability, please: list the molecules accordingly. Return the labels ranked in the requested order, please. 3, 1, 2
(3: 19%, 1: 39%, 2: 100%)

###

experiment: Physiological stability of the compound at pH 4.5 assessed as compound remaining after 12 hrs in presence of 20% acetonitrile; type: physicochemical; details: read-out: Stability
MEASURED ENDPOINT: remaining at 12 h (%)
Number only, in %; omit the unit.

Recorded result, O=C(O)c1c(O)c(C2(c3ccc(Cl)cc3)CC2)nc2c(C(F)(F)F)cccc12 , remaining at 12 h: 99.2

###

test: Physiological stability of the compound at pH 4.5 assessed as compound remaining after 4 hrs in presence of 20% acetonitrile; type: physicochemical; details: read-out: Stability
MEASURED ENDPOINT: remaining at 4 h (%)
Number only, in %; omit the unit.

Recorded result, O=C(O)c1c(O)c(C2(c3ccc(Cl)cc3)CC2)nc2c(C(F)(F)F)cccc12 , remaining at 4 h: 102

###

experiment: Physiological stability of the compound at pH 6.6 assessed as compound remaining after 16 hrs in presence of 20% acetonitrile; type: physicochemical; settings: read-out: Stability
MEASURED ENDPOINT: remaining at 16 h (%)
Number only, in %; omit the unit.

Recorded result, O=C(O)c1c(O)c(C2(c3ccc(Cl)cc3)CC2)nc2c(C(F)(F)F)cccc12 , remaining at 16 h: 103

###

test: Physiological stability of the compound in simulated intestinal fluid assessed as compound remaining after 4 hrs in presence of 20% acetonitrile; type: physicochemical; details: read-out: Stability
MEASURED ENDPOINT: remaining at 4 h (%)
Number only, in %; omit the unit.

Recorded result, O=C(O)c1c(O)c(C2(c3ccc(Cl)cc3)CC2)nc2c(C(F)(F)F)cccc12 , remaining at 4 h: 101

###

assay: Aqueous solubility of the compound at pH 4.5; assay type: physicochemical; settings: aqueous solution
MEASURED ENDPOINT: solubility

Recorded result, O=C(O)c1c(O)c(Cc2ccc(Cl)cc2)nc2c3c(ccc12)CCCC3 [PSI-697] , solubility: < 1 µg/mL

###

experiment: Physiological stability of the compound at pH 1 assessed as compound remaining after 24 hrs in presence of 20% acetonitrile; type: physicochemical; conditions: read-out: Stability
MEASURED ENDPOINT: remaining at 24 h (%)
Number only, in %; omit the unit.

Recorded result, O=C(O)c1c(O)c(C2(c3ccc(Cl)cc3)CC2)nc2c(C(F)(F)F)cccc12 , remaining at 24 h: 101

###

test: Half life in Sprague-Dawley rat liver microsomes; format: ADME, Microsome
MEASURED ENDPOINT: half-life (min)
Number only, in min; omit the unit.

Recorded result, O=C(O)c1c(O)c(Cc2ccc(Cl)cc2)nc2c3c(ccc12)CCCC3 , half-life: 2

###

Biological target: P-selectin glycoprotein ligand 1 (Homo sapiens) (UniProt Q14242)
Sequence (whole entry): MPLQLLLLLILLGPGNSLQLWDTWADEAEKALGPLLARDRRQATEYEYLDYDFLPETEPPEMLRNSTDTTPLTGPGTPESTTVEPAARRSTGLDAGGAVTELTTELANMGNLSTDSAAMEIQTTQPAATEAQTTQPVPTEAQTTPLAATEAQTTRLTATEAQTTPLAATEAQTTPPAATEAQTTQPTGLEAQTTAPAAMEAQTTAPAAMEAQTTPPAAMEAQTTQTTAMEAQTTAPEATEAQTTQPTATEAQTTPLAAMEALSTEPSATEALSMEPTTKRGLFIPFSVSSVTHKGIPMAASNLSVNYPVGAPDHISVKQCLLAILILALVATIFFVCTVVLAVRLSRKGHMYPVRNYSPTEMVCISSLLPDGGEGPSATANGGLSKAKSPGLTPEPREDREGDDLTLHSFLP
Assay: Inhibition of recombinant PSGL-1 at 250 uM by surface plasmon resonance assay
MEASURED ENDPOINT: inhibition (%)

Example entries begin here.
• CC(Cc1nc2c(C(F)(F)F)cccc2c(C(=O)O)c1O)c1ccccc1 (stereo unspecified) = 46
• O=C(O)c1c(O)c(C2(c3ccc(OC(F)(F)F)cc3)CC2)nc2c(C(F)(F)F)cccc12 = 29
• O=C(O)c1c(O)c(C2(c3ccccc3)CC2)nc2c(C(F)(F)F)cccc12 = 44

[P] O=C(O)c1c(O)c(Cc2ccc(Cl)cc2)nc2c(C(F)(F)F)cccc12
[Q] O=C(O)c1c(O)c(C2(c3cccs3)CC2)nc2c(C(F)(F)F)cccc12
Could you tell me which of P and Q has the lower inhibition reading? Your choice should be expressed through its label. Q

Values were extracted from ChEMBL document CHEMBL1212936.
